Source: PubChem BioAssay (NCI)

Some compounds, each annotated with its measured GI50.
Test system: NCI/ADR-RES ovarian
Experiment: NCI tumour cell line growth inhibition, 48 h
*1 amine or outer side, *2 acyl side, *3 side chain or, on linkers, in order; H or OH if unused. Where a SMILES comes first, the peptide text is derived from it. Bridges are numbered along the chain shown (N, C = ends). [ ]: non-standard residue; d: D form. The star is where a group is joined. Phe(3-Me) = Cc1cccc(C[C@H](N)C(=O)O)c1; NH(4-Cl-2-F-phenyl) = Fc1cc(Cl)ccc1N*; Pro(4R-Me) = C[C@H]1CN[C@H](C(=O)O)C1; Hyp = O=C(O)[C@@H]1C[C@@H](O)CN1; aThr = C[C@H](O)[C@H](N)C(=O)O; Pip = O=C(O)[C@@H]1CCCCN1; CO = O=C([*:1])[*:2]
measured endpoint: GI50

compound	system	readout value
C[C@@H]1CCN(C(=O)CC#N)C[C@@H]1N(C)c1ncnc2[nH]ccc12	NCI/ADR-RES ovarian	> 100 µM
O=C(CNC(=O)c1cccc2ccccc12)Nc1ccccc1Oc1ccccc1	NCI/ADR-RES ovarian	0.239 µM
Cc1cc(N/N=C/c2nc(-c3ccccc3)oc2C)c2cc(Cl)ccc2n1	NCI/ADR-RES ovarian	1.84 µM
Cc1cccc(C[C@H](NC(=O)Nc2ccc(Cl)cc2F)C(=O)N[C@@H]2C(=O)N3C[C@H](O)C[C@H]3C(=O)N3CCCC[C@H]3C(=O)N[C@@H](C)C(=O)N3C[C@H](C)C[C@H]3C(=O)O[C@H]2C)c1 ({NH(4-Cl-2-F-phenyl)-CO}-[Phe(3-Me)][aThr][Hyp][Pip]A[Pro(4R-Me)]; ester 2-C)	NCI/ADR-RES ovarian	11 µM
N#CC(C#N)=CN1CCN(C(=O)c2ccccc2)C1=S	NCI/ADR-RES ovarian	> 100 µM
O=C(Nc1ccncc1)C(=O)c1cn(S(=O)(=O)c2ccccc2F)c2ccccc12	NCI/ADR-RES ovarian	0.579 µM
Cc1nc(Nc2ccc(F)c(Cl)c2)sc1C(=O)O	NCI/ADR-RES ovarian	1.78 µM
O=C1C(Cl)=C(N2CCOCC2)C(=O)c2ccccc21	NCI/ADR-RES ovarian	3.11 µM
COc1ccc(C(=O)c2cc(OC)c(OC)c(OC)c2)cc1O	NCI/ADR-RES ovarian	0.0118 µM
O=C(N/N=C/c1ccc(O)cc1O)c1ccc(Nc2ccnc(C(F)(F)F)c2)cc1	NCI/ADR-RES ovarian	> 100 µM
CCS(=O)(=O)c1ccc(OC)c(Nc2nccc(N(C)c3ccc4c(C)[nH]nc4c3)n2)c1	NCI/ADR-RES ovarian	6.32 µM
COc1ccc(C2=C(c3cn(C)c4ccccc34)C(=O)NC2=O)cc1OC	NCI/ADR-RES ovarian	7.99 µM
CCC(C)/C=C(C)/C=C/C(=O)c1c(O)c(-c2ccc(O)cc2)c[nH]c1=O (stereo not drawn)	NCI/ADR-RES ovarian	3.53 µM
